Assay: Absorption test at upper and lower portions of the digestive tract (Test Example 8)
Format: in vivo
Settings: female, rat, blood, 100 mg/kg, rats, directly administered in the large intestine; read-out: AUCO-2 hr

{"compound": "O=C1CCc2cc(OCCCCc3nnnn3C3CCCCC3)ccc2N1 [Comp. Example 5, cilostazol]", "result-unit": "ng·h/mL", "AUC": 236}

###

Assay: Absorption test of cilostazol into the large intestine (Test Example 1)
Type: in vivo, rats
Conditions: rat, blood, other: directly administered in a large intestine loop; female rats, large intestine loop, 100 mg/kg as CLZ; 0.083 hr after administration
readout-kind: concentration at 0.083 hr

{"molecular-string": "O=C1CCc2cc(OCCCCc3nnnn3C3CCCCC3)ccc2N1", "measured": "15 ng/mL"}
